# System: HeLa
# TEST_PROTOCOL: Induction of mitotic arrest in human HeLa cells assessed as monoastral spindle formation after 24 hrs
# Type: functional, cell-based
Measured EC50, listed per entry.
REPORTED_PROPERTY: EC50

NCCCSC(c1ccccc1)(c1ccccc1)c1ccccc1	> 5 µM
N[C@@H](CSC(c1ccccc1)(c1ccccc1)c1ccc(Cl)cc1)C(=O)O	0.51 µM
CCC(SC[C@H](N)C(=O)O)(c1ccccc1)c1ccccc1	> 5 µM
NCCSC(c1ccccc1)(c1ccccc1)c1ccccc1	1.08 µM
N[C@@H](CSC(c1ccccc1)(c1ccc(CO)cc1)c1ccc(CO)cc1)C(=O)O	> 5 µM
COc1ccc(C(SC[C@H](N)C(=O)O)(c2ccccc2)c2ccc(OC)cc2)cc1	> 5 µM

----------
# System: HeLa
# TEST_PROTOCOL: Induction of mitotic arrest in human HeLa cells assessed as monoastral spindle formation after 24 hrs
# Assay type: functional, cell-based
pEC50: −log10 of the molar value.
REPORTED_PROPERTY: pEC50

N[C@@H](CSC(c1ccccc1)(c1ccccc1)c1ccc(Br)cc1)C(=O)O	6.51
N[C@@H](CSC(c1ccccc1)(c1ccccc1)C1CCCCC1)C(=O)O	5.73
Cc1ccc(C(SC[C@H](N)C(=O)O)(c2ccccc2)c2ccccc2)cc1	6.68

----------
# System: HeLa
# TEST_PROTOCOL: Induction of mitotic arrest in human HeLa cells assessed as monoastral spindle formation after 24 hrs
# Format: functional, cell-based
pEC50: −log10 of the molar value.
REPORTED_PROPERTY: pEC50

N[C@@H](CSC(c1ccccc1)(c1ccccc1)c1ccc2ccccc2c1)C(=O)O	6.48
N[C@@H](CSC(c1ccccc1)(c1ccccc1)c1ccccc1)C(=O)O	6.15
Cc1ccc(C(SC[C@H](N)C(=O)O)(c2ccc(C)cc2)c2ccc(C)cc2)cc1	5.51

----------
# System: HeLa
# TEST_PROTOCOL: Cell cycle arrest in human HeLa cells assessed as accumulation at G2/M phase at 1 uM after 24 hrs
# Format: functional
REPORTED_PROPERTY: Activity

N[C@@H](CSC(c1ccccc1)(c1ccccc1)c1ccc(Br)cc1)C(=O)O	68.7%
CCCCC(SC[C@H](N)C(=O)O)(c1ccccc1)c1ccccc1	19.1%
NCCSC(c1ccccc1)(c1ccccc1)c1ccccc1	21.1%
N[C@@H](CSC(c1ccccc1)(c1ccccc1)c1ccc2ccccc2c1)C(=O)O	68.1%
N[C@@H](CSC(c1ccccc1)(c1ccccc1)C1CCCCC1)C(=O)O	19.9%
Cc1ccc(C(SC[C@H](N)C(=O)O)(c2ccccc2)c2ccccc2)cc1	71%
Cc1ccc(C(SC[C@H](N)C(=O)O)(c2ccccc2)c2ccc(C)cc2)cc1	50.8%
N[C@@H](CSC(c1ccccc1)(c1ccccc1)c1ccccc1)C(=O)O	23.1%
N[C@@H](CSC(c1ccccc1)(c1ccccc1)c1ccc2c(c1)OCO2)C(=O)O	24.3%
COc1ccc(C(SC[C@H](N)C(=O)O)(c2ccccc2)c2ccccc2)cc1	69%
N[C@@H](CSC(c1ccccc1)(c1ccccc1)c1ccc(F)cc1)C(=O)O	24%
N[C@@H](CSC(c1ccccc1)(c1ccccc1)c1ccc(Cl)cc1)C(=O)O	48.5%
COC(=O)[C@@H](N)CSC(c1ccccc1)(c1ccccc1)c1ccccc1	20.2%
CC(C)C(SC[C@H](N)C(=O)O)(c1ccccc1)c1ccccc1	22.6%
